Metric: melting point

O=C(O)C(Cc1ccccc1)Nc1cc(-c2ccc(OCC3CCCC3)cc2)ncn1 (centres unmarked) [Example 2-20]	125 to 128 °C
O=C(O)C(Cc1ccccc1)Nc1cccc(-c2ccc(OCc3cccc(F)c3)cc2)c1 (centres unmarked) [Example 24-5]	167 to 169 °C
O=C(O)C(Cc1ccccc1)Nc1cc(-c2ccc(OCCc3ccncc3)cc2)ncn1 (centres unmarked) [Example 2-27]	113 to 115 °C
O=Cc1c(N[C@@H](Cc2ccccc2)C(=O)O)ncnc1-c1ccc(OCc2ccccc2)cc1 [Example 22-1]	> 300 °C
O=C(O)C(Cc1ccccc1)Nc1cc(-c2ccc(OCc3ccccc3)c(F)c2)ncn1 (centres unmarked) [Example 1-47]	117 to 120 °C
O=C(c1ccc(-c2cc(NC(Cc3ccccc3)C(=O)O)ncn2)cc1)C1CCCC1 (centres unmarked) [Example 17-3]	114 to 116 °C

Documented melting point of c1ccc(COc2ccc(-c3cc(NC(Cc4ccccc4)c4nnn[nH]4)ncn3)cc2)cc1 (centres unmarked) [Example 27-1] : 150 °C

Documented melting point of O=C(Cc1ccccc1)Nc1ccc(-c2cc(NC(Cc3ccccc3)C(=O)O)ncn2)cc1 (centres unmarked) [Example 14-3] : 145 to 148 °C (dec.)

Values were extracted from patent US20060089371A1.
